Quick reference for abundance fitness among some variants
B1: Tudor domain-containing protein 3, residues 554 to 611; numbered along this chain, Q9H7E2 (parent)
chain: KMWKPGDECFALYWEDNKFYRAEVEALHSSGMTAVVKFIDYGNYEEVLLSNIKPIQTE

variants of: B1; assay: abundance fitness (aPCA) (normalised: wild type 0, dead -1); higher = more abundant; growth selection in yeast, the domain comes from the species named; settings: Homo sapiens
Format: numeric value only, no unit, no commentary.

Example results:
>  <mutant_name>
D16Y

>  <measured_property>
abundance fitness

>  <readout_value>
-0.691

$$$$
>  <mutant_name>
S29D

>  <measured_property>
abundance fitness

>  <readout_value>
0.014

$$$$

// moving on: another record for abundance fitness
Asked: Requested field: abundance fitness. Item: E45L
Given back: -0.53
